Origin of the recorded values: patent US10738026B2

# MEASURED TARGET: human Nav1.7 (Homo sapiens (Human))
# Sequence (Q15858 with tags, fused parts or gaps limits assumed): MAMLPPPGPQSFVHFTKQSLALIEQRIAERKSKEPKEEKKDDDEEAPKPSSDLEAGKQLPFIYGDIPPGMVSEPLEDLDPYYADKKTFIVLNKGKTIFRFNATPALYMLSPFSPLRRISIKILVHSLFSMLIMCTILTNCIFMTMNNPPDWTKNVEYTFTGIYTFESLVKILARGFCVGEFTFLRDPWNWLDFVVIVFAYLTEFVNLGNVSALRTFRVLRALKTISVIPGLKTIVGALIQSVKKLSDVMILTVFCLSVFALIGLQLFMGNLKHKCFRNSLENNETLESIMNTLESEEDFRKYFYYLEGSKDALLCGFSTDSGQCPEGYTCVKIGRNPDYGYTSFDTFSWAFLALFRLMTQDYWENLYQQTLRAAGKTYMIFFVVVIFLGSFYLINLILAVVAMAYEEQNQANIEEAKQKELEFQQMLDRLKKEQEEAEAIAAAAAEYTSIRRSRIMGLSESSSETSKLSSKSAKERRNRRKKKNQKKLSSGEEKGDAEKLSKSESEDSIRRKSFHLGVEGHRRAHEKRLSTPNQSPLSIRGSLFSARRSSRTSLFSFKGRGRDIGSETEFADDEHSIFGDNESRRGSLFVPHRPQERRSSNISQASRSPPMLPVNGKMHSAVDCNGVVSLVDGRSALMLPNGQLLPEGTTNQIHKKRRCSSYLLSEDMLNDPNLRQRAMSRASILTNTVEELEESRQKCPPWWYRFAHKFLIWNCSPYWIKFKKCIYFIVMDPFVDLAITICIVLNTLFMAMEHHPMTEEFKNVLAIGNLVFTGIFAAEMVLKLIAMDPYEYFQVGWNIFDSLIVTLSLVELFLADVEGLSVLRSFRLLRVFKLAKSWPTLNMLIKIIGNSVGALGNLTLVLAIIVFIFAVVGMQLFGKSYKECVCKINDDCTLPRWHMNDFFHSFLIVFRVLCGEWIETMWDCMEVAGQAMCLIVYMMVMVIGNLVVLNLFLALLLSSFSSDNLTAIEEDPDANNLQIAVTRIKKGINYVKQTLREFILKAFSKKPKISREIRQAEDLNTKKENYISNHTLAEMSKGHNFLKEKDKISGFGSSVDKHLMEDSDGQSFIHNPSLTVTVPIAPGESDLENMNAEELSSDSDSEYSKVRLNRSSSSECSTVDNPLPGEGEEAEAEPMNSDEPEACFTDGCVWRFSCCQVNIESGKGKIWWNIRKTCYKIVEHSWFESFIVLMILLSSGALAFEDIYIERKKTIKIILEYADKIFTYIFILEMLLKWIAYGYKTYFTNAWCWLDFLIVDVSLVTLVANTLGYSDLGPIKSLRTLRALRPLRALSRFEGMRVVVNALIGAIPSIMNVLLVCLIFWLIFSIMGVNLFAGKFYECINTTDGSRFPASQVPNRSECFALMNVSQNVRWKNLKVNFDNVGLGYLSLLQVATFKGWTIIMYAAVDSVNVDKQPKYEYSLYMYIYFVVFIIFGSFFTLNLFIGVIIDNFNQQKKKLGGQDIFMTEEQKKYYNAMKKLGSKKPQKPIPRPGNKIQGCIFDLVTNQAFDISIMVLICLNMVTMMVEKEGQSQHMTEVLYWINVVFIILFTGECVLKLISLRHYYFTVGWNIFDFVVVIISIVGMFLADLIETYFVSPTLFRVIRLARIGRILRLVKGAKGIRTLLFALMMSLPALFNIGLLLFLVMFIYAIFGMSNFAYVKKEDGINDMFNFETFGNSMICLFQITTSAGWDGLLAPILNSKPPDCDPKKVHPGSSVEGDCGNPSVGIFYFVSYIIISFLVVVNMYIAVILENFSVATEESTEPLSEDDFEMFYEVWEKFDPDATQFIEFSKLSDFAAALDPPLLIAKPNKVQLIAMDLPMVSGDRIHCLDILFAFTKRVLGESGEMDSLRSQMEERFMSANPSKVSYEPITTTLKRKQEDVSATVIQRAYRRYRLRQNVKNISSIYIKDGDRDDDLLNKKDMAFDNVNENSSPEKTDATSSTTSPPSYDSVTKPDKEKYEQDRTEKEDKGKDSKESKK
# PROTOCOL: FLIPR or FLIPR TETRA sodium dye assay with KCl and test article pre-incubation (sodium mobilization)
# Type: cell-based
# RUN CONDITIONS: recombinant human Nav1.7 in HEK293; veratridine and scorpion venom as agonists
Each item that follows carries a reported IC50.
REPORTED ENDPOINT: IC50 (µM)

| COMPOUND | MEASURED TARGET | REPORTED ENDPOINT | UNIT TAG | ENDPOINT RESULT |
| --- | --- | --- | --- | --- |
| C[C@H](Nc1cc(C(N)=O)nc(N2CCc3c(cccc3C3CCCCC3)C2)n1)C(N)=O [Compound 31] | human Nav1.7 (Homo sapiens (Human)) | IC50 | µM | 2.2 |
| NC(=O)c1cc(N2CCc3c(cccc3-c3ccc(C(F)(F)F)cc3)C2)cc([C@@H](O)CO)n1 [Compound 36] | human Nav1.7 (Homo sapiens (Human)) | IC50 | µM | 1.54 |
| NC(=O)c1cc(N2CCc3c(cccc3-c3ccc(C(F)(F)F)cc3)C2)cc([C@H](O)CO)n1 [Compound 35] | human Nav1.7 (Homo sapiens (Human)) | IC50 | µM | 0.502 |
| O=S(=O)(Nc1ncns1)c1cccc(N2CCc3c(cccc3-c3ccc(C(F)(F)F)cc3)C2)n1 [Compound 29] | human Nav1.7 (Homo sapiens (Human)) | IC50 | µM | 0.291 |

###

# MEASURED TARGET: UniProtKB Q15858
# PROTOCOL: FLIPR or FLIPR TETRA sodium dye assay with KCl and test article pre-incubation (sodium mobilization)
# Type: cell-based
# RUN CONDITIONS: recombinant human Nav1.7 in HEK293; veratridine and scorpion venom as agonists
The label is label 1 for IC50 below 1 µM and label 0 for IC50 equal to or exceeding 1 µM.

| COMPOUND | MEASURED TARGET | ANSWER LABEL |
| --- | --- | --- |
| C[C@H](Nc1cc(C(N)=O)nc(N2CCc3c(cccc3-c3ccc(C(F)(F)F)cc3)C2)n1)C(N)=O [Compound 22] | UniProtKB Q15858 | label 1 |
| C[C@H](Nc1cc(C(N)=O)nc(N2CCc3c(cccc3-c3cccc(C(F)(F)F)c3)C2)n1)C(N)=O [Compound 27] | UniProtKB Q15858 | label 0 |
| C[C@H](Nc1cc(C(N)=O)nc(N2CCc3c(cccc3-c3ccccc3C(F)(F)F)C2)n1)C(N)=O [Compound 24] | UniProtKB Q15858 | label 0 |
| C[C@H](Nc1cc(C(N)=O)nc(N2CCc3c(cccc3-c3ccc(C(F)(F)F)cn3)C2)n1)C(N)=O [Compound 23] | UniProtKB Q15858 | label 0 |
| C[C@H](Nc1cc(C(N)=O)nc(N2CCc3c(cccc3C3=CCCCC3)C2)n1)C(N)=O [Compound 28] | UniProtKB Q15858 | label 0 |
| NC(=O)[C@@H](O)[C@H](O)c1cccc(N2CCc3c(cccc3-c3ccc(C(F)(F)F)cc3)C2)n1 [Compound 26] | UniProtKB Q15858 | label 1 |

###

# MEASURED TARGET: hNav1.7 (Homo sapiens (Human))
# Sequence (Q15858 other isoform, or with tags, fused parts or gaps): as the sequence (Q15858 with tags, fused parts or gaps limits assumed) above
# PROTOCOL: Electrophysiology (EP) assay, whole-cell patch clamp in hNav1.7 expressing HEK-293 cells
# Assay type: cell-based
# RUN CONDITIONS: hNav1.7 HEK-293 cells; affinity for the inactivated state of the channel; read-out: Nav1.7 Activity (μM) EP assay Ki
REPORTED ENDPOINT: Ki (µM)

| COMPOUND STRUCTURE | ENDPOINT RESULT |
| --- | --- |
| C[C@H](Nc1cc(C(N)=O)nc(N2CCc3c(cccc3-c3cccc(C(F)(F)F)c3)C2)n1)C(N)=O | 0.24 |
| O=S(=O)(Nc1ncns1)c1cccc(N2CCc3c(cccc3-c3ccc(C(F)(F)F)cc3)C2)n1 | 0.535 |
| NC(=O)c1cc(N2CCc3c(cccc3-c3ccc(C(F)(F)F)cc3)C2)cc([C@@H](O)CO)n1 | 0.257 |
| NC(=O)[C@@H](O)[C@H](O)c1cccc(N2CCc3c(cccc3-c3ccc(C(F)(F)F)cc3)C2)n1 | 0.051 |
| C[C@H](Nc1cc(C(N)=O)nc(N2CCc3c(cccc3-c3ccc(C(F)(F)F)cc3)C2)n1)C(N)=O | 0.317 |
| NC(=O)c1cc(N2CCc3c(cccc3-c3ccc(C(F)(F)F)cc3)C2)cc([C@H](O)CO)n1 | 0.232 |
